The following molecules are listed with their measured pIC50 values.
# System tested: CLC-0 E166H mutant (Torpedo marmorata, UniProt P21564, C212S/E166H)
# Assay type: cell-based
# Condition details: read-out: Apparent affinity (K1/2); −120 mV
pIC50: −log10 of the molar value.
Endpoint: pIC50

[
  {
    "Molecule": "O=C(O)COc1ccc(Cl)cc1 [CPA, p-chlorophenoxy acetate]",
    "System tested": "CLC-0 E166H mutant (Torpedo marmorata, UniProt P21564, C212S/E166H)",
    "Value reported": 3.13
  },
  {
    "Molecule": "CCCCCCCC(=O)O [octanoate]",
    "System tested": "CLC-0 E166H mutant (Torpedo marmorata, UniProt P21564, C212S/E166H)",
    "Value reported": 1.94
  }
]

* * *

# System tested: CLC-0 E166C/E127Q/K519M mutant (Torpedo marmorata, UniProt P21564, C212S/E127Q/E166C/K519M)
# Format: cell-based
# Condition details: read-out: Apparent affinity (K1/2); −40 mV

[
  {
    "Molecule": "O=C(O)COc1ccc(Cl)cc1 [CPA, p-chlorophenoxy acetate]",
    "IC50": "457 µM"
  }
]

* * *

# System tested: CLC-0 E166C/K519M mutant (E127/K519M) (Torpedo marmorata, UniProt P21564, C212S/E166C/K519M)
# Assay type: cell-based
# Condition details: read-out: Apparent affinity (K1/2); −40 mV
Endpoint: IC50

[
  {
    "Molecule": "O=C(O)COc1ccc(Cl)cc1 [CPA, p-chlorophenoxy acetate]",
    "Value reported": "378 µM"
  }
]

* * *

# System tested: CLC-0 E166C/K519E mutant (E127/K519E) (Torpedo marmorata, UniProt P21564, C212S/E166C/K519E)
# Type: cell-based
# Condition details: read-out: Apparent affinity (K1/2); −80 mV

[
  {
    "Molecule": "O=C(O)COc1ccc(Cl)cc1 [CPA, p-chlorophenoxy acetate]",
    "Unit symbol": "µM",
    "IC50": 377
  }
]

* * *

The following compounds are listed with their measured IC50 values.
# System tested: CLC-0 E166N mutant (Torpedo marmorata, UniProt P21564, C212S/E166N)
# Type: cell-based
# Condition details: read-out: Apparent affinity (K1/2); −80 mV
Endpoint: IC50 (mM)

[
  {
    "Compound": "O=C(O)COc1ccc(Cl)cc1 [CPA, p-chlorophenoxy acetate]",
    "Endpoint": "IC50",
    "Unit symbol": "mM",
    "Value reported": 3.27
  },
  {
    "Compound": "CCCCCCCC(=O)O [octanoate]",
    "Endpoint": "IC50",
    "Unit symbol": "mM",
    "Value reported": 1.33
  }
]

* * *

# System tested: CLC-0 E166C/K519M mutant (E127/K519M) (Torpedo marmorata, UniProt P21564, C212S/E166C/K519M)
# Type: cell-based
# Condition details: read-out: Apparent affinity (K1/2); −60 mV
pIC50: −log10 of the molar value.
Endpoint: pIC50

[
  {
    "Compound": "O=C(O)COc1ccc(Cl)cc1 [CPA, p-chlorophenoxy acetate]",
    "Endpoint": "pIC50",
    "Value reported": 3.57
  }
]

* * *

# System tested: CLC-0 E166K mutant (Torpedo marmorata, UniProt P21564, C212S/E166K)
# Type: cell-based
# Condition details: read-out: Apparent affinity (K1/2); −140 mV

[
  {
    "Compound": "O=C(O)COc1ccc(Cl)cc1 [CPA, p-chlorophenoxy acetate]",
    "IC50 (mM)": 7.99
  },
  {
    "Compound": "CCCCCCCC(=O)O [octanoate]",
    "IC50 (mM)": 10.6
  }
]

* * *

# System tested: CLC-0 E166C/E127Q mutant (E127Q/K519) (Torpedo marmorata, UniProt P21564, C212S/E127Q/E166C)
# Type: cell-based
# Condition details: read-out: Apparent affinity (K1/2); −40 mV

[
  {
    "Compound": "O=C(O)COc1ccc(Cl)cc1 [CPA, p-chlorophenoxy acetate]",
    "IC50": "491 µM"
  }
]

* * *

The following molecules are listed with their measured pIC50 values.
# System tested: CLC-0 E166L mutant (Torpedo marmorata, UniProt P21564, C212S/E166L)
# Format: cell-based
# Condition details: read-out: Apparent affinity (K1/2); −60 mV
pIC50: −log10 of the molar value.
Endpoint: pIC50

[
  {
    "Molecule": "CCCCCCCC(=O)O [octanoate]",
    "Value reported": 3.72
  },
  {
    "Molecule": "O=C(O)COc1ccc(Cl)cc1 [CPA, p-chlorophenoxy acetate]",
    "Value reported": 2.58
  }
]

* * *

# System tested: CLC-0 E166C/E127Q/K519M mutant (Torpedo marmorata, UniProt P21564, C212S/E127Q/E166C/K519M)
# Assay type: cell-based
# Condition details: read-out: Apparent affinity (K1/2); −140 mV
Endpoint: IC50 (µM)

[
  {
    "Compound": "O=C(O)COc1ccc(Cl)cc1 [CPA, p-chlorophenoxy acetate]",
    "Value reported": 31
  }
]

* * *

# System tested: CLC-0 E166N mutant (Torpedo marmorata, UniProt P21564, C212S/E166N)
# Sequence (P21564 1-805 E166N/C212S): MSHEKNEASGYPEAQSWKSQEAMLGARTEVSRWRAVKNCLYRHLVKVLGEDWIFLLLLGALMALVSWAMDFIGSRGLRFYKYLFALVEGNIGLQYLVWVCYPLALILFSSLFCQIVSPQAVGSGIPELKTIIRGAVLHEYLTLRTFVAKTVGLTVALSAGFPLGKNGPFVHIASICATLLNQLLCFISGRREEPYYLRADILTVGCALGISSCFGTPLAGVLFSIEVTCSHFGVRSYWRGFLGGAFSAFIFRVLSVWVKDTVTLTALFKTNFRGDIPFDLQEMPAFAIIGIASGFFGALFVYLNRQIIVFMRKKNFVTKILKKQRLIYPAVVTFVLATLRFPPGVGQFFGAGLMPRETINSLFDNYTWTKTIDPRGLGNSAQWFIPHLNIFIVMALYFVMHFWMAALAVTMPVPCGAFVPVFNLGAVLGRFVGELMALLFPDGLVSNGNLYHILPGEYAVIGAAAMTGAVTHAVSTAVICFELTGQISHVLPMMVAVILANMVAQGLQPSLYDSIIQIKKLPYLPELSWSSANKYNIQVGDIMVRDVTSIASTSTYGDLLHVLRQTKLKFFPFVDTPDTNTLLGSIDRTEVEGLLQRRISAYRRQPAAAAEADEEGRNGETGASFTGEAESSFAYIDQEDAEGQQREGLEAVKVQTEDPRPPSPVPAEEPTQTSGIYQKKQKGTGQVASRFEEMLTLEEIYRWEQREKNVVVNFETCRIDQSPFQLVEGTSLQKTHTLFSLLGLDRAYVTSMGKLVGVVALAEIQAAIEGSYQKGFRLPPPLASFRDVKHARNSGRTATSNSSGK
# Format: cell-based
# Condition details: read-out: Apparent affinity (K1/2); −40 mV
pIC50: −log10 of the molar value.
Endpoint: pIC50

[
  {
    "Compound": "O=C(O)COc1ccc(Cl)cc1 [CPA, p-chlorophenoxy acetate]",
    "Value reported": 2.01
  },
  {
    "Compound": "CCCCCCCC(=O)O [octanoate]",
    "Value reported": 2.31
  }
]

* * *

# System tested: CLC-0 E166Y mutant (Torpedo marmorata, UniProt P21564, C212S/E166Y)
# Assay type: cell-based
# Condition details: read-out: Apparent affinity (K1/2); −120 mV
The following compounds are listed with their measured IC50 values.

[
  {
    "Compound": "O=C(O)COc1ccc(Cl)cc1 [CPA, p-chlorophenoxy acetate]",
    "IC50, mM": 0.38
  },
  {
    "Compound": "CCCCCCCC(=O)O [octanoate]",
    "IC50, mM": 7.43
  }
]

* * *

# System tested: CLC-0 E166F mutant (Torpedo marmorata, UniProt P21564, C212S/E166F)
# Sequence (P21564 1-805 E166F/C212S): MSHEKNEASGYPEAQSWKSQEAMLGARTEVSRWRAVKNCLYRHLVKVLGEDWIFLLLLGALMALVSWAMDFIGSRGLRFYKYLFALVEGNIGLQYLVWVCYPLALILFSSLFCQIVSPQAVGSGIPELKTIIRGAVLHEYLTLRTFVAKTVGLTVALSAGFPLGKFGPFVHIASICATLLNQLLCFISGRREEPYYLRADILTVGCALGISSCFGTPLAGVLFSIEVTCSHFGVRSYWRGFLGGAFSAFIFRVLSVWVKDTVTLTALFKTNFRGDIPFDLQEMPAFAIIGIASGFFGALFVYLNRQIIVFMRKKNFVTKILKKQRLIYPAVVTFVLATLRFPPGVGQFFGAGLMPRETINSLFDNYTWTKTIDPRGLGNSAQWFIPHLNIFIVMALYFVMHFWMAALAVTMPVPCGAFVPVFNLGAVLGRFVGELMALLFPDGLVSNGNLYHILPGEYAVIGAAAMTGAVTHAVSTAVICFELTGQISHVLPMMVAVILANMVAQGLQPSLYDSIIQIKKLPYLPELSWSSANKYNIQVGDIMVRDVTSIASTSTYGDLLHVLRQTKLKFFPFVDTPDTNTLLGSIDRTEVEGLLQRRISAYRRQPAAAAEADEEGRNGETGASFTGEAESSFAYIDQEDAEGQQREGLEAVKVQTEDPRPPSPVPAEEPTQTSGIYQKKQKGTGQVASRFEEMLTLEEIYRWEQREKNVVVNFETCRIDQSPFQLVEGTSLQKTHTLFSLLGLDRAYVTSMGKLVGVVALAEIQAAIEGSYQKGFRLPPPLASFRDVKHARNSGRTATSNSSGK
# Format: cell-based
# Condition details: read-out: Apparent affinity (K1/2); −160 mV
pIC50: −log10 of the molar value.
The following molecules are listed with their measured pIC50 values.

[
  {
    "Molecule": "O=C(O)COc1ccc(Cl)cc1 [CPA, p-chlorophenoxy acetate]",
    "System tested": "CLC-0 E166F mutant (Torpedo marmorata, UniProt P21564, C212S/E166F)",
    "pIC50": 4.33
  },
  {
    "Molecule": "CCCCCCCC(=O)O [octanoate]",
    "System tested": "CLC-0 E166F mutant (Torpedo marmorata, UniProt P21564, C212S/E166F)",
    "pIC50": 4.04
  }
]
